B1: LINE1-full (parent)
chain: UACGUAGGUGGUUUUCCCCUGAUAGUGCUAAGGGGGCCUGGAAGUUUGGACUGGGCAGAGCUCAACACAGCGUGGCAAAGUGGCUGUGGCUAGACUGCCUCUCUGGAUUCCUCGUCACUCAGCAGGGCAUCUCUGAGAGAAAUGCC

- Variants of: B1
- experiment description: self-cleavage, relative activity (ratio to wild type); higher = more cleavage; in vitro, sequencing; the parent is a self-cleaving ribozyme
Measured self-cleavage values are reported for all entries that follow.
Answer with a number only.

>  <query sequence>
UACGUAGGUGGUUUUCCCCUGAUAGUGCUAAGGGGGCCUGGAAGUUUGGACUGGGCAGAGCUCAACACAGCGUGGCAAAGUGGCUGUGGCUAGACUGCCUCUCUGGAUUCCACGUCACUCAGCAGGGCAUCUCUGAGAGAAACGCC [U112A U143C]

>  <number>
0.83

$$$$
>  <query sequence>
UACGUAGGUGGUUUUCCCCUGAUAGUGCUAAGGGGGCCUGGAAGUUUGGACUGGGCAGAGCUCAACACAGCGUGGCAAAGUGGCUGUGGCUAGACUGCCUCUCUGGAUCCCUCGUCACUCAGCAGGGCAUCUCUGAGGGAAAUGCC [U109C A138G]

>  <number>
1.69

$$$$
>  <query sequence>
UACGUAGGUGGUUUUCCCCUGAUAGUGCUAAGGGGGCCUGGAAGUUCGGACUGGGCAGAGCUCAACACAGCGUGGCAAAGUGGCUGUGGCUAGACUGCCUCUCUGGAUUCCUCGUCACUCAGCAGAGCAUCUCUGAGAGAAAUGCC [U47C G126A]

>  <number>
1.84

$$$$
>  <query sequence>
UUCGUAGGUGGUUUUCCCCUGAUAGUGCUAAGGGGGCCUGGAAGUUUGGACUGGGCAGAGCUCAACACAGCGUGGCAAAGUGGCUGUGGCUAGACUGCCUCUCUGGAUUCCUCGUCACUCAGCAGGGCAUCUCUGAGAGAAAUGCC [A2U]

>  <number>
0.98

$$$$

Quick one: self-cleavage of UACGUAGGUGGUUUUCCCCUGAUAGUGCUAAGGGGGCCUGGAAGUUUGGACUGGGCAGAGCUCAACACAGCGUGGCAAAGUGGCUGUGGCUAGACUGUCUCUCUGGAUUCCUCGUCACUCGGCAGGGCAUCUCUGAGAGAAAUGCC [C98U A121G] ?
0.44

Quick one: self-cleavage of UACGUAGGUGGUUUUCCCCUGAUAGUGCUAAGGGAGCCUGGAAGUUUGGACUGGGCAGAGCUCAACACAGCGUGGCAAAGUGGCUGUGGCUAGACUGCCUCUCUGAAUUCCUCGUCACUCAGCAGGGCAUCUCUGAGAGAAAUGCC [G35A G106A] ?
1.21

Quick one: self-cleavage of CACGUAGGUGGUUUUCCCCUGAUAGUGCUAAGGGGGCCUGGAAGGUUGGACUGGGCAGAGCUCAACACAGCGUGGCAAAGUGGCUGUGGCUAGACUGCCUCUCUGGAUUCCUCGUCACUCAGCAGGGCAUCUCUGAGAGAAAUGCC [U1C U45G] ?
0.48
